Just for reference, patent US6822102B2 is where these values come from.

Molecular target: COX-2 (UniProt P35354)
Sequence (P35354 1-604): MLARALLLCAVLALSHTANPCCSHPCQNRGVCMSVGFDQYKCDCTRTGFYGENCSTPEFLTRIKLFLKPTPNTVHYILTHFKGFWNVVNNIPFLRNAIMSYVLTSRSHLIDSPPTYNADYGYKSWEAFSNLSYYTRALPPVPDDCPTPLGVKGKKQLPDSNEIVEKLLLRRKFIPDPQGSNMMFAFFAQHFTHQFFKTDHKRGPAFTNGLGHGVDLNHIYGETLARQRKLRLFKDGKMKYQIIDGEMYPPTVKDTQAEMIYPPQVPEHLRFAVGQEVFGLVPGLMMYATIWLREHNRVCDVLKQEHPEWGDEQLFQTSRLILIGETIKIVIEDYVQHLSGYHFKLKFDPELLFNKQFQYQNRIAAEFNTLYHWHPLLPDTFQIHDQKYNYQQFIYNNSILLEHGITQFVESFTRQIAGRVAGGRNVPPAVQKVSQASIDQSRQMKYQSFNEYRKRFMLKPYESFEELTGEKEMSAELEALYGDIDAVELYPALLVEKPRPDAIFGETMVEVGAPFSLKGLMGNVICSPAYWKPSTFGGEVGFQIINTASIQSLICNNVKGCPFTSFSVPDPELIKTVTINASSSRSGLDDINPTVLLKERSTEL
Assay: Assay for COX-2 activity (PGE2 ELISA, recombinant enzyme)
Assay type: biochemical, human or murine
Details: without asterisk
result type: IC50 (nM)
One number for each entry, in nM.

Consider the worked cases shown below.
INSERT INTO results (molecule, units_of_measure, assay_result) VALUES
  ('O=C(O)[C@@H]1Cc2cc(Cl)c(Cl)c(Cl)c2O[C@@H]1C(F)(F)F (racemic)', 'nM', 700),
  ('O=C(O)[C@@H]1Cc2cc(Cl)cc(Cl)c2O[C@@H]1C(F)(F)F', 'nM', 200),
  ('O=C(O)[C@@H]1Cc2cc(Cl)ccc2O[C@@H]1C(F)(F)F', 'nM', 29000);

We now examine a further molecule.
Documented IC50 of O=C(O)[C@@H]1Cc2cc(OC(F)(F)F)ccc2O[C@@H]1C(F)(F)F (racemic) : 400

====

For each of the molecules below, state its IC50.
target: UniProt P35354; assay: Assay for COX-2 activity (PGE2 ELISA, recombinant enzyme); assay type: biochemical, human or murine; conditions: without asterisk
Numbers only, in nM.

INSERT INTO results (molecule, assay_result) VALUES
  ('O=C(O)[C@@H]1Cc2c(ccc(Cl)c2Cl)O[C@@H]1C(F)(F)F (racemic) [Example 3]', 200),
  ('O=C(O)[C@@H]1Cc2c(Cl)ccc(Cl)c2O[C@@H]1C(F)(F)F (racemic) [Example 8]', 2000),
  ('O=C(O)[C@@H]1Cc2cc(Cl)ccc2N[C@@H]1C(F)(F)F [Example 6]', 25000),
  ('N#Cc1ccc2c(c1)C[C@@H](C(=O)O)[C@@H](C(F)(F)F)O2 (racemic) [Example 10]', 18000),
  ('O=C(O)[C@@H]1Cc2c(cc(Cl)c(Cl)c2Cl)O[C@@H]1C(F)(F)F (racemic) [Example 5]', 400);

We now examine a further molecule.
Noted IC50 for O=C(O)[C@@H]1Cc2cc(Cl)cc(Cl)c2S[C@@H]1C(F)(F)F (relative stereo) [Example 1] , tested on UniProt P35354: 300

====

Target: UniProt:P23219
Experiment: Fast assay for COX-1 activity (PGE2 ELISA, recombinant enzyme)
Type: biochemical, human or murine
Details: column marked *; footnote not given
Experimental: a. Preparation of recombinant COX baculoviruses Recombinant COX-1 and COX-2 were prepared as described by Gierse et al, [J. Biochem., 305, 479-84 (1995)]. […] COX activity was assayed as PGE2 formed/μg protein/time using an ELISA to detect the prostaglandin released. […] The PGE2 formed was measured by standard ELISA technology (Cayman Chemical).
For each of the molecules below, state its log10 of IC50.
Please be aware that the numbers have been log10-transformed from IC50 in µM.

For each of the items listed, what is its log10 of IC50?
1. O=C(O)[C@@H]1Cc2cc(Cl)cc(Cl)c2O[C@@H]1C(F)(F)F
2. O=C(O)[C@@H]1Cc2cc(Cl)cc(Cl)c2S[C@@H]1C(F)(F)F (relative stereo)
3. O=C(O)[C@@H]1Cc2c(Cl)ccc(Cl)c2O[C@@H]1C(F)(F)F (racemic)
4. O=C(O)[C@@H]1Cc2c(ccc(Cl)c2Cl)O[C@@H]1C(F)(F)F (racemic)
5. O=C(O)[C@@H]1Cc2cc(OC(F)(F)F)ccc2O[C@@H]1C(F)(F)F (racemic)
6. CC(C)(C)c1cc2c(cc1Cl)C[C@@H](C(=O)O)[C@@H](C(F)(F)F)O2

A:
1: 0.00; 2: -0.22; 3: 0.94; 4: 0.76; 5: 1.81; 6: 0.11

Documented log10 of IC50 of O=C(O)[C@@H]1Cc2cc(Cl)c(Cl)c(Cl)c2O[C@@H]1C(F)(F)F (racemic) : 1.73

====

molecular target: COX-1 (UniProt P23219); assay: Assay for COX-1 activity (PGE2 ELISA, recombinant enzyme); type: biochemical, human or murine; settings: without asterisk
pIC50: −log10 of the molar value.
result type: pIC50

For each of the items listed, what is its pIC50?
1. O=C(O)[C@@H]1Cc2c(ccc(Cl)c2Cl)O[C@@H]1C(F)(F)F (racemic)
2. O=C(O)[C@@H]1Cc2cc(Cl)cc(Cl)c2O[C@@H]1C(F)(F)F

A:
< 4.00
5.55

====

result type: melting point

INSERT INTO measurements (compound, result_type, assay_result) VALUES
  ('O=C(O)[C@@H]1Cc2cc(Cl)c(Cl)c(Cl)c2O[C@@H]1C(F)(F)F (racemic)', 'melting point', '205.2 to 208.1 °C');

For each of the items listed, what is its melting point?
1. O=C(O)[C@@H]1Cc2cc(Cl)cc(Cl)c2S[C@@H]1C(F)(F)F (racemic)
2. O=C(O)[C@@H]1Cc2c(ccc(Cl)c2Cl)O[C@@H]1C(F)(F)F (racemic)
3. O=C(O)[C@@H]1Cc2cc(Cl)cc(Cl)c2O[C@@H]1C(F)(F)F
4. O=C(O)[C@@H]1Cc2cc(Cl)ccc2O[C@@H]1C(F)(F)F
5. N#Cc1ccc2c(c1)C[C@@H](C(=O)O)[C@@H](C(F)(F)F)O2 (racemic)

A:
1: 165 to 170.2 °C; 2: 173 to 174.4 °C; 3: 100.3 to 101.1 °C; 4: 118.1 to 119.2 °C; 5: 169 to 170.4 °C

====

molecular target: COX-2 (UniProt P35354); assay: Fast assay for COX-2 activity (PGE2 ELISA, recombinant enzyme); type: biochemical, human or murine; conditions: column marked *; footnote not given
For each of the compounds below, state its IC50.
Give bare numbers, in nM.

For each of the items listed, what is its IC50?
1. O=C(O)[C@@H]1Cc2c(ccc(Cl)c2Cl)O[C@@H]1C(F)(F)F (racemic)
2. O=C(O)[C@@H]1Cc2cc(Cl)ccc2O[C@@H]1C(F)(F)F
3. O=C(O)[C@@H]1Cc2cc(Cl)c(Cl)c(Cl)c2O[C@@H]1C(F)(F)F (racemic)
4. O=C(O)[C@@H]1Cc2c(cc(Cl)c(Cl)c2Cl)O[C@@H]1C(F)(F)F (racemic)

A:
1: 200; 2: 500; 3: 600; 4: 400

====

biological target: COX-2 (UniProt P35354); experiment: Fast assay for COX-2 activity (PGE2 ELISA, recombinant enzyme); type: biochemical, human or murine; details: column marked *; footnote not given
For each of the molecules below, state its pIC50.
One number for each entry, as −log10 of the molar value.

For each of the items listed, what is its pIC50?
1. N#Cc1ccc2c(c1)C[C@@H](C(=O)O)[C@@H](C(F)(F)F)O2 (racemic)
2. O=C(O)[C@@H]1Cc2cc(Cl)cc(Cl)c2O[C@@H]1C(F)(F)F
3. O=C(O)[C@@H]1Cc2c(Cl)ccc(Cl)c2O[C@@H]1C(F)(F)F (racemic)
4. O=C(O)[C@@H]1Cc2cc(Cl)cc(Cl)c2S[C@@H]1C(F)(F)F (relative stereo)
5. O=C(O)[C@@H]1Cc2cc(Cl)ccc2N[C@@H]1C(F)(F)F
6. CC(C)(C)c1cc2c(cc1Cl)C[C@@H](C(=O)O)[C@@H](C(F)(F)F)O2
7. O=C(O)[C@@H]1Cc2cc(OC(F)(F)F)ccc2O[C@@H]1C(F)(F)F (racemic)

A:
5.32
6.52
5.64
6.22
5.59
5.80
6.22

====

molecular target: COX-1 (UniProt P23219); assay: Assay for COX-1 activity (PGE2 ELISA, recombinant enzyme); type: biochemical, human or murine; settings: without asterisk
For each of the compounds below, state its IC50.

Consider the worked cases shown below.
INSERT INTO results (compound, result_type, assay_result) VALUES
  ('O=C(O)[C@@H]1Cc2cc(Cl)ccc2O[C@@H]1C(F)(F)F', 'IC50', '> 100 µM'),
  ('O=C(O)[C@@H]1Cc2cc(Cl)cc(Cl)c2S[C@@H]1C(F)(F)F (relative stereo)', 'IC50', '0.6 µM');

We now examine a further compound.
Documented IC50 of O=C(O)[C@@H]1Cc2c(cc(Cl)c(Cl)c2Cl)O[C@@H]1C(F)(F)F (racemic) : > 100 µM
